Each recorded value in this set is attributed to patent US20250351832A1.

- Tested on: Mealy Bug
- condition-description: Mealy Bug on cotton leaves; dose 1 ml/gm/lit.; 48 Hrs.; corrected for water control
Note to self: class labels come from recorded % Corrected Mortality at 48 Hrs., ranges listed here: low interval (below 50%), middle interval (50% to below 60%), high interval (60% or more)

Input: Field: class (% Corrected Mortality at 48 Hrs.) — entry: C/C=C\c1cc(OC)c(OC)cc1OC
Output: low interval

Input: Continue with CCCCC[C@H](O)CC(=O)CCc1ccc(O)c(OC)c1
Output: low interval

Input: Query CC12CCC(CC1)C(C)(C)O2 next
Output: middle interval

Input: How about this compound: CCCCCCCCCC(C)=O
Output: middle interval

Input: Then O=c1oc2c(O)c(O)cc3c(=O)oc4c(O)c(O)cc1c4c23 ?
Output: middle interval

Input: Field entry: Cc1ccc(C(C)C)c(O)c1
Output: middle interval

Input: How about this compound: CC1CCC(C(C)C)C(O)C1 (stereo not drawn)
Output: high interval

Input: Then C=C1C2CCC(C2)C1(C)C (stereo not drawn) ?
Output: low interval

Input: Likewise for CCCCCCCCCCCCCCCC(=O)O ?
Output: high interval

Input: Consider next the compound Cc1ccc(C(C)C)cc1O in the same way.
Output: high interval
